procedure.text: qHTS for Inhibitors of Inflammasome Signaling: IL-1-beta AlphaLISA Primary Screen; further: on the % scale 0 is the no-effect control and ±100 the full control effect
experimental.context: THP-1 LPS/ATP IL-1B secretion, 16 h; at 57.5 µM, stronger effect = lower value
Among all 360,000 compounds or so, about 17,000 (4.7%) were called active. Inconclusive results (about 5%) are left out. This excerpt belongs to a sample that is enriched for actives.
For each record, write down the corresponding activity change.
Write the value in % as a bare number.

I am curious: what activity change value has been reported for `COc1ccc(C(=O)Nc2ccc(F)cc2F)cc1` ?
-11.8

Now this one: `Cc1cc(C(=O)COc2ccccc2Cl)c(C)n1C1CC1`
0

Now this one: `CCc1cc(C(N)=O)c(NC(=O)c2ccc(OC)cc2)s1`
-102

Now this one: `CCc1cc(C(=O)c2ccc(OC)cc2)c(NC(=O)CN2CCN(C)CC2)s1`
-54.3

Now this one: `Cc1cc(C(=O)COc2ccc(Br)cc2F)c(C)n1C1CC1`
-54.4

Now this one: `CC(C)(C)c1cc(=O)n2c(nc3ccccc32)[nH]1`
-74.5
